From: ChEMBL document CHEMBL5233233

tested-system: Histone deacetylase 1 (Homo sapiens)
Sequence (Q13547 whole entry): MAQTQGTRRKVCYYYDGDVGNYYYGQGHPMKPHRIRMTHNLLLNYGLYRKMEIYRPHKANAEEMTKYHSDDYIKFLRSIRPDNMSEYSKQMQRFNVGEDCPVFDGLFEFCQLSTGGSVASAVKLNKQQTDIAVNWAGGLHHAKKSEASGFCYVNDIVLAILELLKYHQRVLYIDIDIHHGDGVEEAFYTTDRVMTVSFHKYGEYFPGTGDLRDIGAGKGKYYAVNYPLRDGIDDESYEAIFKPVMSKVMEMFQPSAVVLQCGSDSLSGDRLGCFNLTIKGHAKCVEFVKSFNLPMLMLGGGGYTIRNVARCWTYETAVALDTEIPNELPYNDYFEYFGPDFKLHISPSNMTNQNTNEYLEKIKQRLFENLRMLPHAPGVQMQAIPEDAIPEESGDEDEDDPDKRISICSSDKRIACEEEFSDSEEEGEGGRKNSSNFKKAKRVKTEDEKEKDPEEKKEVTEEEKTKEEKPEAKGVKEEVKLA
experiment-description: Inhibition of human recombinant HDAC1 expressed in baculovirus by using Boc-L-Lys(Ac)-AMC as substrate measured after 24 hrs by fluorescence based analysis
pIC50: −log10 of the molar value.
In this section, each of the compounds is paired with its reported pIC50.
endpoint: pIC50

> print(dat)
                                  structure  endpoint  readout.value
1     O=C(CCCCCCNCc1ccc([N+](=O)[O-])cc1)NO     pIC50           6.66
2  O=C(CCCCCCN(Cc1ccc(-c2ccccc2)s1)Cc1ccc(-c2ccccc2)s1)NO     pIC50           6.08
3         O=C(CCCCCCNCc1ccc(-c2ccccc2)s1)NO     pIC50           7.32
4               Cc1cc(CNCCCCCCC(=O)NO)ccc1F     pIC50           6.85
5                O=C(CCCCCCNCc1ccc(F)cc1)NO     pIC50           6.66
6           O=C(CCCCCCNCc1cc2ccccc2[nH]1)NO     pIC50           7.21
